test-target: T1, purified recombinant human folate receptor alpha (rh-FRα) (human, UniProt P15328 25-234)
T1 construct: One is secreted from CHO cells, with a human Ig kappa leader and a C-terminal 6x His tag replacing the GPI attachment site; The other is from Sf9 cells, with an N-terminal 6x His tag and the GPI site intact; also called FR-alpha; FOLR1
T1 sequence (P15328 25-234 limits assumed): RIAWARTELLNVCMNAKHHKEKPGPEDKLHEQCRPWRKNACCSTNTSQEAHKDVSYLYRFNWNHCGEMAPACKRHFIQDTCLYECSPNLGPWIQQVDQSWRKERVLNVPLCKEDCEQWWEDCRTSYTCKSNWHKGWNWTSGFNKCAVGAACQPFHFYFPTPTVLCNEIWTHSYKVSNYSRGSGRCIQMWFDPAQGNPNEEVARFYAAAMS
experiment-summary: SPR, BIACORE T100, antibody captured on anti-mouse IgG, rh-FRα 1-30 nM as analyte, single-cycle kinetics, 1:1 fit
Below is a list of entries, each paired with its recorded koff value.
Please respond with the number in s⁻¹ and leave the unit unwritten.

// known answers, use as guide
binder	measurement-units	koff
Monoclonal antibody 26B3.F2 (antibody, mouse IgG1, V domains shown, also called MAb 26B3; ATCC PTA-11885) VH: GPELVKPGASVKISCKASDYSFTGYFMNWVMQSHGKSLEWIGRIFPYNGDTFYNQKFKGRATLTVDKSSSTAHMELRSLASEDSAVYFCARGTHYFDYWGQGTTLTVSS VL: PASLSASVGETVTITCRTSENIFSYLAWYQQKQGISPQLLVYNAKTLAEGVPSRFSGSGSGTQFSLKINSLQPEDFGSYYCQHHYAFPWTFGGGSKLEIKR	s⁻¹	1.43e-05
Monoclonal antibody 19D4.B7 (antibody, mouse IgG2a, V domains shown, It was labelled with Ru (about 13 labels per IgG) when used as the detector in the ECL assays; also called ATCC PTA-11884) VH: GAELVKPGASVKLSCTASGFNIKHPYMHWVKQRPDQGLEWIGRIDPANGNTKYDPKFQGKATITADTSSNTAYLQLSSLTSEDTAVYYCGREEVADYTMDYWGQGTSVTVSS VL: PASLAVSLGQRATISCRASESVDTYGNNFIHWYQQKPGQPPKLLIYLASNLESGVPARFSGSGSRTDFTLTIDPVEADDAATYYCQQNNGDPWTFGGGTKLEIKR	s⁻¹	0.000242
Monoclonal antibody 24F12.B1 (antibody, mouse IgG1, V domains shown, also called ATCC PTA-11886) VH: SGGGLVRPGGSLKLSCAASGFTFSSYAMSWVRQSPEKRLEWVAEIGSGGSYTYYPDTVTGRFTISRDNAKSTLYLEMSSLRSEDTAIYYCARETTAGYFDYWGQGTTLTVSS VL: TSSLSASLGDRVTISCSASQGINNFLNWYQQKPDGTVKLLIYYTSSLHSGVPSRFSGSGSGTDYSLTISNLEPEDIAIYYCQHFSKLPWTFGGGTKLEIKR	s⁻¹	3.99e-05

Would you kindly look at the next entry?
For record Monoclonal antibody 9F3.H9.H3.H3.B5.G2 (antibody, mouse IgG2a, V domains shown, also called ATCC PTA-11887) VH: ESGPGLVRPSQSLSLTCSVTGYSITSGYYWNWIRQFPGSRLEWMGYIKSDGSNNYNPSLKNRISITRDTSKNQFFLKLNSVTTEDTATYFCTREWKAMDYWGQGTSVTVSS VL: PAIMSASPGEKVTMTCRASSTVSYSYLHWYQQKSGASPQLWIYGTSNLASGVPARFSGSGSGTSYSLTISSVEAEDAATYYCQQYSGYPLTFGAGTKLELKR the listed koff is 0.00031
